# System name: PPAR-γ (Homo sapiens, UniProt P37231)
# Construct: expressed in transfected cells; host or cells: CV-1 (African green monkey kidney)
# Sequence (P37231 204-505): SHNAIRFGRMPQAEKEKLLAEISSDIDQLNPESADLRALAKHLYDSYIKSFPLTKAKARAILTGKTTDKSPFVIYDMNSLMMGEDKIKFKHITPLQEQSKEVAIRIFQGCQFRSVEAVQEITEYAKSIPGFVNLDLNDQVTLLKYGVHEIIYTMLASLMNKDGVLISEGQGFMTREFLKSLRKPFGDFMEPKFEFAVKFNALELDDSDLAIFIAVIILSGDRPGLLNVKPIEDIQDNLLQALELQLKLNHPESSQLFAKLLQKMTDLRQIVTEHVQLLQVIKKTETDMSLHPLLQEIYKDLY
# Experiment: PPAR-γ reporter assay (GAL4 luciferase, CV-1 cells)
# Type: cell-based
# Test settings: induction ratio of luciferase activity at 25 μM, activity without tested compound = 1, hGR-GAL4-hPPAR-γ
Result type: PPAR-γ induction ratio

CCCCCCCCCC(=O)N[C@H](C(=O)O)[C@@H](C)CC | 15.9
CCCCCCCCCCCC(=O)NC(C)(C)C(=O)O | 20.3
CCCCCCCCCCCCNC(=O)C(NC(=O)CCCCCCCCCCC)C(C)C (racemic) | 16.6
CCCCCCCCCCCC(=O)NC(C)(C(=O)O)C(C)C (racemic) | 24.0

1 = CCCCCCCCCCCC(=O)NC(C(N)=O)C(C)C (racemic)
2 = C=CCCCCCCCCC(=O)N[C@@H](CC(C)C)C(=O)O
3 = CCCCCCCCCCCC(=O)NC1(C(=O)O)CCCCCC1
[ask] Task field, ranking: reported PPAR-γ induction ratio, descending order. Your reply should list the labels following the order given in the request.
[reply] 1, 2, 3
(1: 19.2, 2: 11.5, 3: 6.7)
